- tested-system: UniProtKB P41149
- Sequence (P41149 whole entry): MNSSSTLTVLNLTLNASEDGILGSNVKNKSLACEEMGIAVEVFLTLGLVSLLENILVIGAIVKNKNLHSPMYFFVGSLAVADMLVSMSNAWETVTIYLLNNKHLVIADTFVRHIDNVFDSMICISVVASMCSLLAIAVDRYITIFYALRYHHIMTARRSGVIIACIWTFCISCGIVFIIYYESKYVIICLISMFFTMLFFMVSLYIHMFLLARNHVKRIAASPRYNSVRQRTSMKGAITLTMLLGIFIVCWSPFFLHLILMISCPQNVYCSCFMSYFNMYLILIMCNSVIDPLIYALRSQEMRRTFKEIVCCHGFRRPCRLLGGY
- assay-details: Agonistic activity evaluated at melanocortin 5 receptor (MC5R) of mouse HEK293 cells
- Format: functional, cell-based
pEC50: −log10 of the molar value. Where a SMILES comes first, the peptide text is derived from it. [ ]: non-standard residue; d: D form. Gly(N(CH2)2(3-indolyl)) = O=C(O)CNCCc1c[nH]c2ccccc12; Gly(N-CH2CH2-imidazol-4-yl) = O=C(O)CNCCc1c[nH]cn1; Nphe = O=C(O)CNCc1ccccc1
measure: pEC50

CC(=O)N(CCc1cnc[nH]1)CC(=O)N[C@@H](Cc1ccccc1)C(=O)N[C@@H](CCCNC(=N)N)C(=O)N[C@@H](Cc1c[nH]c2ccccc12)C(N)=O (Ac-[Gly(N-CH2CH2-imidazol-4-yl)]FRW-NH2) = 6.28

a. CC(=O)N(CC(=O)N[C@@H](Cc1ccccc1)C(=O)N[C@@H](CCCN=C(N)N)C(=O)N[C@@H](Cc1c[nH]c2ccccc12)C(N)=O)Cc1ccccc1 (Ac-[Nphe]FRW-NH2)
b. CC(=O)N[C@@H](Cc1c[nH]cn1)C(=O)N[C@@H](Cc1ccccc1)C(=O)N[C@@H](CCCN=C(N)N)C(=O)N(CCc1c[nH]c2ccccc12)CC(N)=O (Ac-HFR[Gly(N(CH2)2(3-indolyl))]-NH2)
Between a and b , which one has the lower reported pEC50 value? Your choice should be expressed through its label.
a

---

- tested-system: Melanocyte-stimulating hormone receptor (Mus musculus)
- Sequence (Q01727 whole entry): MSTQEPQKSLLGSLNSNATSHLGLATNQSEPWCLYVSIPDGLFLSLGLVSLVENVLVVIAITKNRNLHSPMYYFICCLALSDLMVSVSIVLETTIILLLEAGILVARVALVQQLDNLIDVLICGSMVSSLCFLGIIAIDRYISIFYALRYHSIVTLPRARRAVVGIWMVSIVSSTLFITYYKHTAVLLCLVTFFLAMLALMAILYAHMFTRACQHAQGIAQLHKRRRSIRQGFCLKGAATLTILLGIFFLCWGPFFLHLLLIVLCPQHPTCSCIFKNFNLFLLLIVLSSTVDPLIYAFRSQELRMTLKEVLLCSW
- assay-details: Agonistic activity evaluated at melanocortin 1 receptor (MC1R) of mouse HEK293 cells
- Type: functional, cell-based
pEC50: −log10 of the molar value. Where a SMILES comes first, the peptide text is derived from it. [ ]: non-standard residue; d: D form. Gly(N(CH2)2(3-indolyl)) = O=C(O)CNCCc1c[nH]c2ccccc12; Gly(N-CH2CH2-imidazol-4-yl) = O=C(O)CNCCc1c[nH]cn1; N(1-naphthylmethyl)Gly = O=C(O)CNCc1cccc2ccccc12; Gly(N-(CH2)3-guanidino) = N=C(N)NCCCNCC(=O)O; NhArg = N=C(N)NCCCCNCC(=O)O; Nphe = O=C(O)CNCc1ccccc1; Nlys = NCCCCNCC(=O)O
measure: pEC50

CC(=O)N(CC(=O)N(CC(=O)N(CCCCN=C(N)N)CC(=O)N(CC(N)=O)Cc1cccc2ccccc12)Cc1ccccc1)Cc1ccccc1 (Ac-[Nphe][Nphe][NhArg][N(1-naphthylmethyl)Gly]-NH2) = 5.12

I. CC(=O)N[C@@H](Cc1cnc[nH]1)C(=O)N(CC(=O)N[C@@H](CCCNC(=N)N)C(=O)N[C@@H](Cc1c[nH]c2ccccc12)C(N)=O)Cc1ccccc1
II. CC(=O)N[C@@H](Cc1c[nH]cn1)C(=O)N[C@@H](Cc1ccccc1)C(=O)N[C@@H](CCCN=C(N)N)C(=O)N(CCc1c[nH]c2ccccc12)CC(N)=O (Ac-HFR[Gly(N(CH2)2(3-indolyl))]-NH2)
III. CC(=O)N(CCc1cnc[nH]1)CC(=O)N[C@@H](Cc1ccccc1)C(=O)N[C@@H](CCCNC(=N)N)C(=O)N[C@@H](Cc1c[nH]c2ccccc12)C(N)=O (Ac-[Gly(N-CH2CH2-imidazol-4-yl)]FRW-NH2)
IV. CC(=O)N(CCc1c[nH]cn1)CC(=O)N(CC(=O)N(CCCCN)CC(=O)N(CCc1c[nH]c2ccccc12)CC(N)=O)Cc1ccccc1 (Ac-[Gly(N-CH2CH2-imidazol-4-yl)][Nphe][Nlys][Gly(N(CH2)2(3-indolyl))]-NH2)
V. CC(=O)N(CCc1c[nH]cn1)CC(=O)N(CC(=O)N(CCCN=C(N)N)CC(=O)N(CCc1c[nH]c2ccccc12)CC(N)=O)Cc1ccccc1 (Ac-[Gly(N-CH2CH2-imidazol-4-yl)][Nphe][Gly(N-(CH2)3-guanidino)][Gly(N(CH2)2(3-indolyl))]-NH2)
Order these by pEC50, descending, and give the full ranking. Give the labels in the order specified.
II, III, V, IV, I

I. CC(=O)N[C@@H](Cc1cnc[nH]1)C(=O)N[C@@H](Cc1ccccc1)C(=O)N(CCCNC(=N)N)CC(=O)N[C@@H](Cc1c[nH]c2ccccc12)C(N)=O (Ac-HF[Gly(N-(CH2)3-guanidino)]W-NH2)
II. CC(=O)N(CC(=O)N[C@@H](Cc1ccccc1)C(=O)N[C@@H](CCCN=C(N)N)C(=O)N[C@@H](Cc1c[nH]c2ccccc12)C(N)=O)Cc1ccccc1 (Ac-[Nphe]FRW-NH2)
Between I and II , whose recorded pEC50 is greater? Your choice should be expressed through its label.
I
(I: 6.77, II: 6.11)

Value source: ChEMBL document CHEMBL1145871
